Listed next: entries and their corresponding EC50.
# subject-of-test: T1, full-length human CD22 fused with flag and Myc tags at the C-terminus, on HEK293 or K562 cells (human, UniProt P20273 20-847)
# T1 construct: whole, on cells; also called CD22/K562; CD22/HEK293; not shown: C-terminal flag and Myc tags of the pCMV6-Entry vector
# T1 sequence (looked up): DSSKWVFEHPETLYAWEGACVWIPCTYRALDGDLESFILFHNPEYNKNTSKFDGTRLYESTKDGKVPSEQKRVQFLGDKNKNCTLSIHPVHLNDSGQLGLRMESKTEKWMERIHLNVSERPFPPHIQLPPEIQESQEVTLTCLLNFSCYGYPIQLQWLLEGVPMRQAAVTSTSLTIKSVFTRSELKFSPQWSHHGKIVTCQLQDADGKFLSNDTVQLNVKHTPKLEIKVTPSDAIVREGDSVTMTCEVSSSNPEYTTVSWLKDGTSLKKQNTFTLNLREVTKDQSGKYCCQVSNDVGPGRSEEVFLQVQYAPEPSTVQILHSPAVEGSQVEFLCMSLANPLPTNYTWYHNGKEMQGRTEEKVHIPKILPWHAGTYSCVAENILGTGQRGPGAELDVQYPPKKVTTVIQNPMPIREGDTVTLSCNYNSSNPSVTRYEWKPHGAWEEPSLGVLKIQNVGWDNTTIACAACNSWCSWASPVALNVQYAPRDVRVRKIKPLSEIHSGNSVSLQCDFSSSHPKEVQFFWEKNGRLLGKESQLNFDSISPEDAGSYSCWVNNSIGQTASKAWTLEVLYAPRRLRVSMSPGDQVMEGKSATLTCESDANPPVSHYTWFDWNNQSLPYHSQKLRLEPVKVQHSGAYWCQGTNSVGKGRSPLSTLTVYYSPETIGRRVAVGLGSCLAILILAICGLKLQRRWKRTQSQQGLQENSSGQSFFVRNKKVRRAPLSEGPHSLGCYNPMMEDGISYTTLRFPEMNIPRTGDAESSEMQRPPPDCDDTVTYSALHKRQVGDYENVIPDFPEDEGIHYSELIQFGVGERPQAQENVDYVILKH
# test: FACS, scFv titrated on CD22-expressing cells, anti-His Alexa 488
Field: numeric (nM). Do not append units.

binder	unit-info	EC50
EP35-E6 scFv (scFv, VH-VL orientation; not shown: C-terminal flag and 6xHIS tag) scFv: QVQLVESGGALVQPGGSLRLSCVVSGFPFSTAWMNWVRQAPGKGLEWVARIKSEAHGGTTHYAPPVQGRFTISRDDSKNTVSLQMNSLKTEDTGVYYCGDFQWGQGTLVTVSSGGGGSGGGGSGGGGSVIWMTQSPSSLSASVGDRITITCQASQDISNFLNWYQQKPGEAPKLLLYDASNLERGVPSRFSGGGSGTDFTLTISSLQPEDIATYFCQQYDNLPLTFGGGTKVEIK	nM	14.2
EP35-A7 scFv (scFv, VH-VL orientation; not shown: C-terminal flag and 6xHIS tag) scFv: EVQLVESRGGVVQPGGSLRLSCAASGFTFSSYGMHWVRQAPGKGLEWVAFIRYDGSNKYYADSVKGRFTISRDNSKNTLYLQMNSLRAEDTAVYYCAKETVTTNYYYYMDVWGKGTTVTVSSGGGGSGGGGSGGGGSDVVMTQSPLSLPVTLGQPASISCRSSRSLEYNDGNTYLNWFHQRPGQSPRRLIYKVSNRDSGVPDRFSGSGSDTDFTLKISRVEAEDVGIYYCMQGTHWPLTFGQGTRLEIK	nM	10.4
EP97-F01 scFv (scFv, VH-VL orientation; not shown: C-terminal flag and 6xHIS tag) scFv: QVQLVQSGAEVKKPGASVKVSCKASGYTFTSYGISWVRQAPGQGLEWMGWISAYNGNTNYAQKLQGRVTMTTDTSTSTAYMELRSLRSDDTAVYYCARDHIAAAGDYWGQGTLVTVSSGGGGSGGGGSGGGGSEIVMTQSPATLSVSPGEGVTLSCRASQSVSSNLAWYQQRPGQAPRLLIYGASIKATDVPDRFSGGGSGTDFTLSITNLQSEDFAVYYCQQYHTWPPVTFGGGTKVEIK	nM	10

Requested field: EC50. Item: EP160-D02 scFv (scFv, VH-VL orientation; made in E. coli, His-tag purified; also called EP160-D2; not shown: C-terminal flag and 6xHIS tag) scFv: QVQLVQSGAEVKKPGASVKVSCKASGYTFTSYGISWVRQAPGQGLEWMGWISAYNGNTNYAQKLQGRVTMTTDTSTSTAYMELRSLRSDDTAVYYCARDPLEPLESDYWGQGTLVTVSSGGGGSGGGGSGGGGSEIVMTQSPATLSVSPGEGVTLSCRASQSVSSNLAWYQQRPGQAPRLLIYGASIKATDVPDRFSGGGSGTDFSLSITNLQSEDFAVYYCQQYHTWPPVTFGGGTKVEIK
0.24

Next record, please: EP35-B05 scFv (scFv, VH-VL orientation; also called EP35-B5; not shown: C-terminal flag and 6xHIS tag) scFv: QVQLVQSGAEVKKPGASVKVSCKASGYTFTSYGISWVRQAPGQGLEWMGWISAYNGNTNYAQKLQGRVTMTTDTSTSTAYMELRSLRSDDTAVYYCARDSGNSPIDYWGQGTLVTVSSGGGGSGGGGSGGGGSEIVMTQSPATLSVSPGEGVTLSCRASQSVSSNLAWYQQRPGQAPRLLIYGASIKATDVPDRFSGGGSGTDFTLSISNLQSEDFAVYYCQQYHTWPPVTFGGGTKVEIK
77

Cited source for all entries: patent US20220298257A1
